Target: recombinant human Tenascin-C FnIII C domain (TNC-C), hexahistidine-tagged
Test: phage binding to immobilized recombinant protein (cell-free)
Details: read off a plot
Response key: yes (1) means percent of parent >= 50%; no (0) means percent of parent < 50%.

Input line: Tell me whether percent of parent is at least 50% here: T7 phage displaying PL3 peptide (AGRGRLVR) R3A
Output line: no (0)

Input line: Tell me whether percent of parent is at least 50% here: T7 phage displaying PL3 peptide (AGRGRLVR) V7A
Output line: yes (1)

Input line: Tell me whether percent of parent is at least 50% here: T7 phage displaying PL3 peptide (AGRGRLVR) R8A
Output line: no (0)

Input line: Tell me whether percent of parent is at least 50% here: T7 phage displaying PL3 peptide (AGRGRLVR) G4A
Output line: yes (1)

Input line: Tell me whether percent of parent is at least 50% here: T7 phage displaying PL3 peptide (AGRGRLVR) G2A
Output line: yes (1)

Input line: Tell me whether percent of parent is at least 50% here: T7 phage displaying PL3 peptide (AGRGRLVR) L6A
Output line: no (0)

====

What Representation of phage in tumors, WT-GBM was measured for each of the following?
System: WT-GBM
Assay: In vivo play-off phage auditioning, WT-GBM tumor
Design: species or system murine WT-GBM glioblastoma in athymic nude mice
Details: phage-displayed peptide; equimolar mix, i.v. 1 × 10^10 pfu/mouse, 2 h circulation, perfusion; Ion-Torrent sequencing; mean, N = 3 mice
Give the number; fold G7 control phage is assumed, so skip it.

# Representation of phage in tumors, WT-GBM (substance: GRLTRVR [Clone-46] ) is 1.9

# Representation of phage in tumors, WT-GBM (substance: CAGRGRLVRC [Modified clone-5] ) is 0.9

# Representation of phage in tumors, WT-GBM (substance: AVRGRLRVAKLAAALE [Clone-3] ) is 1.3

# Representation of phage in tumors, WT-GBM (substance: CRGVLRRAKLAAALE [Clone-2] ) is 1.6

# Representation of phage in tumors, WT-GBM (substance: VGRVRFSRKLAAALE [Clone-30] ) is 2.5

# Representation of phage in tumors, WT-GBM (substance: AGVGRLRRAKLAAALE [Clone-1] ) is 2.3

# Representation of phage in tumors, WT-GBM (substance: GGGGGGG [heptaglycine control phage, reference compound] ) is 1.0

# Representation of phage in tumors, WT-GBM (substance: RGRLVRAK [Modified clone-5] ) is 23.8

# Representation of phage in tumors, WT-GBM (substance: RRLVRVA [Clone-35] ) is 1.4

# Representation of phage in tumors, WT-GBM (substance: AGRGRLVRAKLAAALE [Clone-5] ) is 23.9

# Representation of phage in tumors, WT-GBM (substance: AGRGRLVR (left off: T7 phage particle (peptide displayed on it), end not stated, kept) [PL3] ) is 24.1

# Representation of phage in tumors, WT-GBM (substance: CSRRGILRAKPAAALE [Clone-4] ) is 1.5

# Representation of phage in tumors, WT-GBM (substance: RGRLVRA [Clone-45] ) is 3

====

What percent of parent was measured for each of the following?
Biological target: recombinant b1b2 domain of neuropilin-1 (NRP-1)
Assay: phage binding to immobilized recombinant protein (cell-free)
Details: read off a plot
Give the number; % is assumed, so skip it.

# percent of parent (substance: T7 phage displaying PL3 peptide (AGRGRLVR) R8A ) is 19

# percent of parent (substance: T7 phage displaying PL3 peptide (AGRGRLVR) G2A ) is 92

# percent of parent (substance: T7 phage displaying PL3 peptide (AGRGRLVR) R5A ) is 190

# percent of parent (substance: T7 phage displaying PL3 peptide (AGRGRLVR) G4A ) is 96

# percent of parent (substance: T7 phage displaying PL3 peptide (AGRGRLVR) L6A ) is 140

# percent of parent (substance: T7 phage displaying PL3 peptide (AGRGRLVR) V7A ) is 180
